# TARGET OR TEST SYSTEM: human recombinant M3 expressed in CHO cells (Homo sapiens)
# Construct: purchased PerkinElmer, Inc., Wellesley, Mass; host or cells: CHO cells
# Sequence (P20309 whole entry): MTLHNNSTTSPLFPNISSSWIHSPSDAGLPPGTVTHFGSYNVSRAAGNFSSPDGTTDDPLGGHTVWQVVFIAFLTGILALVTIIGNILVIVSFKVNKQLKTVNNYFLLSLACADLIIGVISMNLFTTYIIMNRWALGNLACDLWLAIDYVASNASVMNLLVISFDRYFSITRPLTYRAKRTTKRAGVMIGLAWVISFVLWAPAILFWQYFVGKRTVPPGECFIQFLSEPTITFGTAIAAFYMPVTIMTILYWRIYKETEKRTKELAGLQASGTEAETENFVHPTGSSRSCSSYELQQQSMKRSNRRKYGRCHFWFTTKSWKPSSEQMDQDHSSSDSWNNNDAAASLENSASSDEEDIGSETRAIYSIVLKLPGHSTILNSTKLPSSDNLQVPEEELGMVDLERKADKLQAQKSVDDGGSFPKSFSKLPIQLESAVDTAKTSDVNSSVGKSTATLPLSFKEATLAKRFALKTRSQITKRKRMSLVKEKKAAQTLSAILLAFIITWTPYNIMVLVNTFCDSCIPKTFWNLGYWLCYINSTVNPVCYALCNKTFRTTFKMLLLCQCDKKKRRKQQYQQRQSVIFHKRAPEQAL
# ASSAY DETAILS: M3 muscarinic receptor binding assay ([3H]-scopolamine, N-methyl chloride displacement)
# RUN CONDITIONS: Table 5; read-out: M3 inhibition constant Ki
pKi: −log10 of the molar value.
RECORDED METRIC: pKi

*Q* For the molecule CC(C)(CN1CCC(=C2c3ccc(F)cc3CSc3ccccc32)CC1)C(=O)O.Cl , report pKi.
*A* < 5.00

###

# TARGET OR TEST SYSTEM: UniProt:P30546
# Sequence (P30546 whole entry): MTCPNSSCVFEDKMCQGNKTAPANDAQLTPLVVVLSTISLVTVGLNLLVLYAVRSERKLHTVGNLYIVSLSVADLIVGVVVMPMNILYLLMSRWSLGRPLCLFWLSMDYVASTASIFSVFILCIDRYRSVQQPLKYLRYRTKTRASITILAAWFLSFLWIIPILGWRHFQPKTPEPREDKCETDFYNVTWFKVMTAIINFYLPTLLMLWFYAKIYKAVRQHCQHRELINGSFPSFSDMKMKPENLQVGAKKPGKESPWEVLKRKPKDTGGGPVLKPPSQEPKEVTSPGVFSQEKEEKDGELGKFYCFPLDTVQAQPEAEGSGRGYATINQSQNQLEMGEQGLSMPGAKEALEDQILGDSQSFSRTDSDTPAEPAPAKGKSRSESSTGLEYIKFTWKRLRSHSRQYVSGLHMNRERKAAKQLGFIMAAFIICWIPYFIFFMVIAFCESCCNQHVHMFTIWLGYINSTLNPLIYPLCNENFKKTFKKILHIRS
RECORDED METRIC: pKi
Please express pKi as -log10 of the molar concentration.

*Q* Consider the compound CC(C)(CN1CCC(=C2c3ccc(F)cc3CSc3ccccc32)CC1)C(=O)O.Cl . State its measured pKi.
*A* 7.30

###

# TARGET OR TEST SYSTEM: human recombinant M1 expressed in CHO cells (Homo sapiens)
# Construct: purchased PerkinElmer, Inc., Wellesley, Mass; host or cells: CHO cells
# Sequence (P11229 whole entry): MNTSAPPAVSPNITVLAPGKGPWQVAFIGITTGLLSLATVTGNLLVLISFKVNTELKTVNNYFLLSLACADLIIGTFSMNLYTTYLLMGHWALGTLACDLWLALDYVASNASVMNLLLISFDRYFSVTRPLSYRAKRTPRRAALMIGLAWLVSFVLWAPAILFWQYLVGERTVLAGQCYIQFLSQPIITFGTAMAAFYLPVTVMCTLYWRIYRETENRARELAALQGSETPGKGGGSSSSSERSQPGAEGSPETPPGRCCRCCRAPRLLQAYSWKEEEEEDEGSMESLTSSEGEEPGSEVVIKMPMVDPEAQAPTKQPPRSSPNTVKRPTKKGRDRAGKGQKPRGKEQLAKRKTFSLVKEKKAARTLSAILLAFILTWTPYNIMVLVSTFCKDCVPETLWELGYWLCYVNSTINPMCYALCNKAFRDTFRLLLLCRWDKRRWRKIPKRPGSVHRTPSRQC
# ASSAY DETAILS: M1 muscarinic receptor binding assay ([3H]-scopolamine, N-methyl chloride displacement)
# RUN CONDITIONS: Table 5; read-out: M1 inhibition constant Ki
RECORDED METRIC: Ki

*Q* Dear colleague, please send me the reported Ki for CC(C)(CN1CCC(=C2c3ccc(F)cc3CSc3ccccc32)CC1)C(=O)O.Cl [Compound 8] when you can.
*A* > 10 µM
